Origin of values: PubChem BioAssay (NCATS)

EXPERIMENT_SUMMARY: BET inhibitor-based combinations targeting novel dependencies in MECOM-rearranged (r) AML: SET-2 cell line (AID 2202231); note: nearly all actives have a fitted effect of over 35% in size;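 for viability: plate controls were DMSO treated cells for no effect and wells without cells for full effect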
MEASUREMENT_SETUP: SET-2 AML cells viability, CellTiter-Glo luminescence, 48 h; stronger effect = lower value, series mostly up to about 46 µM
Results filed as inconclusive are left out. Non-standard residues stand in square brackets, D forms with d. Residues, ends and D or L forms follow the SMILES beside them. *: point of attachment. Sta = CC(C)C[C@H](N)[C@@H](O)CC(=O)O; Isovaleryl = CC(C)CC(=O)*
Answer each item with its documented viability.
Answers are plain numbers, in %.

# MOLECULE, REPORTED_RESULT
rows = [
    ("O=c1c(O)c(-c2ccc(O)c(O)c2)oc2cc(O)cc(O)c12", 113),
    ("CNC[C@H](O)[C@@H](O)[C@H](O)[C@H](O)CO", 121),
    ("N[C@@H](Cc1c[nH]c2ccc(O)cc12)C(=O)O", 98.1),
    ("Cc1c(F)cc(C(=O)NC2CC2)cc1-c1ccc(C(=O)NCC(C)(C)C)cn1", 92.7),
    ("NCCc1ccc(O)c(O)c1", 112),
]

Working through the 5 molecules below one at a time, give viability for each.
1. CC[C@H](C)C(=O)O[C@H]1C[C@@H](C)C=C2C=C[C@H](C)[C@H](CC[C@@H]3C[C@@H](O)CC(=O)O3)[C@H]21
2. CCOc1cc(N)c(Cl)cc1C(=O)NCC1CN(Cc2ccc(F)cc2)CCO1 (stereo unspecified)
3. O=C1NC(=O)/C(=C/c2ccc3nccnc3c2)S1
4. O=C(O)CSCC(=O)NC1CCSC1=O (stereo unspecified)
5. O=C(O)CCn1c2c(c3ccccc31)C[C@H](NS(=O)(=O)c1ccc(F)cc1)CC2

[109, 105, 113, 95.2, 105]

Working through the 5 molecules below one at a time, give viability for each.
1. C1Cc2[nH]nc(-c3nn[nH]n3)c2C1
2. O=C(CCN1CCN(C(=O)OCc2cc(Cl)cc(Cl)c2)CC1)c1ccc2[nH]c(=O)oc2c1
3. CC(C)CC(=O)N[C@H](C(=O)N[C@H](C(=O)N[C@@H](CC(C)C)[C@@H](O)CC(=O)N[C@@H](C)C(=O)N[C@@H](CC(C)C)[C@@H](O)CC(=O)O)C(C)C)C(C)C (Isovaleryl-VV[Sta]A[Sta]-OH)
4. CN(C)c1cccc(-c2c3c(=O)n(-c4ccccc4Cl)[nH]c3cc(=O)n2C)c1
5. COc1ccc2cc([C@H](C)C(=O)O)ccc2c1

1. 120
2. 95.2
3. 117
4. 110
5. 116

What value of viability has been reported for the following molecule? `O=C(Nc1nc2ccccc2n1CCN1CCOCC1)c1cccc([N+](=O)[O-])c1`
112

###

Answer each item with its documented Potency.
EXPERIMENT_SUMMARY: BET inhibitor-based combinations targeting novel dependencies in MECOM-rearranged (r) AML: SET-2 cell line (AID 2202231); note: nearly all actives have a fitted effect of over 35% in size; note: potency is the fitted concentration of half-maximal effect;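 for viability: plate controls were DMSO treated cells for no effect and wells without cells for full effect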
MEASUREMENT_SETUP: SET-2 AML cells viability, CellTiter-Glo luminescence, 48 h
Records with an inconclusive call do not appear. Active and inactive are the calls of the source. The call rests on the fitted dose curve; in most records, active means well fitted inhibition curve with a large enough effect; inconclusive means small, poorly fitted or top-dose-only effect; inactive means no such curve, though single readings can be large or run the other way.

Some molecules with known Potency results, for comparison:
# MOLECULE, ENDPOINT, REPORTED_RESULT
measured = [
    ("CC(C)COCC(CN(Cc1ccccc1)c1ccccc1)N1CCCC1 (stereo not given)", "Potency", "23.5 µM (active)"),
    ("Cc1cccc(-c2[nH]c(C(C)(C)C)nc2-c2ccc3c(c2)OCO3)n1", "Potency", "16.6 µM (active)"),
    ("OCc1ccc(-c2nn(Cc3ccccc3)c3ccccc23)o1", "Potency", "16.6 µM (active)"),
    ("Cc1cnc(Nc2ccc(F)cc2Cl)nc1-c1c[nH]c(C(=O)N[C@H](CO)c2cccc(Cl)c2)c1", "Potency", "23.5 µM (active)"),
]

What value of Potency has been reported for the following molecule? `CCCS(=O)(=O)Nc1ccc(F)c(C(=O)c2c[nH]c3ncc(Cl)cc23)c1F`
16.6 µM (active)
